Kindly state glycan array binding signal (z-score) for each of the entries shown.
target: Fuc(a1-3)[Gal(b1-4)]GlcNAc(b1-3)GalNAc; experiment: glycan array binding signal (z-score within array); higher = stronger binding; settings: glycan notation: IUPAC condensed, linker removed
Many of the other results were omitted from the sample, so the strongest signals are more common in it than they were.
Respond with the number and no other words.

Measured glycan array binding signal (z-score) of SEX4 (Arabidopsis thaliana), Q944A8 (protein) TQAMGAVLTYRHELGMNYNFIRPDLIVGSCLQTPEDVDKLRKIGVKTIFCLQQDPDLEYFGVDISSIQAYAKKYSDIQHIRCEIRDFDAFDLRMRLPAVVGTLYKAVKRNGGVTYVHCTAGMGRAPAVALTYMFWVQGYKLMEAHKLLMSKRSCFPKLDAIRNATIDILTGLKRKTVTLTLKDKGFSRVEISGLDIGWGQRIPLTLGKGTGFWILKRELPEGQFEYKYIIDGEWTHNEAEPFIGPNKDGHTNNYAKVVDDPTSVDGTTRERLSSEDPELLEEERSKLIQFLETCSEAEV : 2.34

Measured glycan array binding signal (z-score) of SSL (Salmo salar) (protein) TGAKGAEEGVVPAETRNQCPTGWFQFGSRCFMFVETARSWPLAERHCVSLGANLASVHSSADDQFLQAIAGCKTGAFSTTWIGGFDAVQDRLWFWSDGSEFDYQNWAKGEPNNSGGREPCIVINWGDEYRWNDIKCGNSFPSVCSKRICEIQKN : -0.124

Measured glycan array binding signal (z-score) of SP16665A-bot-344-23-344 (Bacteroides ovatus) (protein) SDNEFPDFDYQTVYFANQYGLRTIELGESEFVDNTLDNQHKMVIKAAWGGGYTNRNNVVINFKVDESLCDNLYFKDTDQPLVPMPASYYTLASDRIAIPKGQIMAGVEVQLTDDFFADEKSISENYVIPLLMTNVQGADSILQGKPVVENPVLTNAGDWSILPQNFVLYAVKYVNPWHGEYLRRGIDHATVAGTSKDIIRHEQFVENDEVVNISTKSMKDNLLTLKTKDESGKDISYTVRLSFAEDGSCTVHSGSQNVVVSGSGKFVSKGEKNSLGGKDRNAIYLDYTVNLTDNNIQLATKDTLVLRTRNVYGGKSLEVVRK : -0.329
